- System: KB
- protocol description: Cytotoxicity against human KB cells after 48 hrs by neutral red assay
- Type: cell-based
result type: Activity

query: Fill in the blank: the reported Activity of `C[C@@H]1[C@H](O)[C@@H](C)/C=C/C=C/C=C/C=C/C=C/C=C/C=C/[C@H](O[C@@H]2O[C@H](C)[C@@H](O)[C@H](N)[C@@H]2O)C[C@@H]2O[C@](O)(C[C@@H](O)C[C@@H](O)[C@H](O)CC[C@@H](O)C[C@@H](O)CC(=O)O[C@H]1C)C[C@H](O)[C@H]2C(=O)O` is ____.
result: > 10 µg/mL

query: Fill in the blank: the reported Activity of `CC(C)(C)OC(=O)N[C@@H](Cc1cnc(C23CC4CC(CC(C4)C2)C3)[nH]1)C(=O)N[C@@H](Cc1c[nH]c2ccccc12)C(=O)N[C@@H](Cc1cnc(C23CC4CC(CC(C4)C2)C3)[nH]1)C(=O)NCc1ccccc1` is ____.
result: > 10 µg/mL
